Target: BRD4 (BDII_E352-M457) (Homo sapiens, UniProt O60885)
Construct: proliferation; Protocol; made in house
Test: TR-FRET bromodomain binding assay, second bromodomain of BRD4
Conditions: His-tagged BD2, 30 nM Alexa647 probe; TR-FRET protocol A-E given per row
Readout type: Ki (nM)

Consider the reported Ki for these compounds:
Cn1cc(-c2cc(CNC3CCNCC3)ccc2Oc2ccc(F)cc2F)c2cc[nH]c(=O)c21
1050
Cc1nn(-c2ccccc2)c(Cl)c1CNc1ccc(Oc2ccc(F)cc2F)c(-c2cn(C)c3c(=O)[nH]ccc23)c1
384
CCS(=O)(=O)Nc1ccc(Oc2ccc(Cl)cc2)c(-c2cn(C)c3c(=O)[nH]ccc23)c1
29
CCS(=O)(=O)Nc1ccc(Oc2ccc(F)cc2F)c(-c2cn(C)c3c(=O)[nH]c(C(=O)N4CCCC4)cc23)c1
41.3
Cn1cc(-c2cc(S(C)(=O)=O)ccc2OCC2CC2)c2cc[nH]c(=O)c21
165

A: Cc1noc(C)c1-c1cc2c(-c3cc(CS(C)(=O)=O)ccc3Oc3ccc(F)cc3F)cn(C)c2c(=O)[nH]1
B: CCS(=O)(=O)Nc1ccc(Oc2ccc(F)cc2F)c(-c2cn(C)c3c(=O)[nH]c(C(=O)N4CCC(O)CC4)cc23)c1
In the pair A and B , the larger recorded Ki belongs to which? // return label of chosen record A
(A: 1870 nM, B: 68.5 nM)

====

Tested on: breast cancer cell line MX-1
Experiment: MX-1 cell line proliferation assay
Format: cell-based
Settings: Homo sapiens, MX1, 72 h, MX-1 cells, 3-day proliferation assay, Cell Titer Glo; read-out: Cellular proliferation EC50
Readout type: EC50 (nM)

Consider the reported EC50 for these molecules:
Cn1cc(-c2cc(S(C)(=O)=O)ccc2OC2CCCOC2)c2cc[nH]c(=O)c21 (stereo not drawn) [Example 26]
123
CCS(=O)(=O)c1ccc(Oc2ccccc2C#N)c(-c2cn(C)c3c(=O)[nH]ccc23)c1 [Example 83]
100

1: CCS(=O)(=O)Nc1ccc(Oc2ccc(F)cc2F)c(-c2cn(C)c3c(=O)[nH]c(C(=O)NCCN(C)C)cc23)c1 [Example 188]
2: Cn1cc(-c2cc(CS(=O)(=O)NC3CCCCC3)ccc2Oc2ccc(F)cc2F)c2cc[nH]c(=O)c21 [Example 102]
Lower EC50: 1 or 2 ? // return label of chosen record 1
(1: 29.9 nM, 2: 739 nM)

A: Cn1cc(-c2cc(NC(=O)c3cc(Cl)ccc3Cl)ccc2Oc2ccc(F)cc2F)c2cc[nH]c(=O)c21 [Example 148]
B: Cn1cc(-c2cc(S(C)(=O)=O)ccc2NCC2CCCC2)c2cc[nH]c(=O)c21 [Example 68]
C: Cn1cc(-c2cc(S(C)(=O)=O)ccc2OCC(F)(F)C(F)(F)F)c2cc[nH]c(=O)c21 [Example 64]
D: CCS(=O)(=O)Nc1ccc(Oc2ccc(F)cc2F)c(-c2cn(C)c3c(=O)[nH]c(C(=O)NCc4cccnc4)cc23)c1 [Example 192]
E: Cn1cc(-c2cc(CN3CCNCC3)ccc2Oc2ccc(F)cc2F)c2cc[nH]c(=O)c21 [Example 105]
Kindly order the items shown according to EC50, from the highest value down. Give the order by naming the labels one after another as requested. E, A, C, B, D

P: Cn1cc(-c2cc(CS(C)(=O)=O)ccc2Nc2ccc(F)cc2)c2cc[nH]c(=O)c21 [Example 121]
Q: CCS(=O)(=O)Nc1ccc(Oc2ccc(F)cc2F)c(-c2cn(C)c3c(=O)[nH]c(C(=O)NCCCO)cc23)c1 [Example 190]
Lower EC50: P or Q ? // return label of chosen record P
(P: 40 nM, Q: 82 nM)
